Item-by-item account of IC50
# Test system: L929 (a mouse fibroblast cell line)
# assay-overview: Cell proliferation assay (WST-8), L929
# Assay type: cell-based
# run-parameters: Mus musculus, L929; means ± range (n = 2) or standard deviation (n > 2); DMSO less than 1%
# Protocol: We used THP-1 (a human monocytic leukemia cell line), L929 (a mouse fibroblast cell line), RAW264.7 (a mouse macrophage cell line), and mouse bone marrow-derived macrophages cultured in a flask or plate at 37°C, under a humidified atmosphere of 5% CO2 in air. […] The absorbance of each well was then measured at 450 nm with a Multiskan Ascent plate reader (Labsystems). […] Half-maximal (50%) inhibitory concentration (IC50) of each test sample was calculated according to the reported formula [15]. […]

Recall the reported IC50 of CC(C)c1cc2c(c(O)c1O)[C@@]13CCCC(C)(C)[C@@H]1C[C@@H]2OC3=O when tested on L929 (a mouse fibroblast cell line).
50.1 µM

Find IC50 for O=P(O)(O)C(Cl)(Cl)P(=O)(O)O [Clodronate, clodronate, reference compound] on L929 (a mouse fibroblast cell line) and write it down.
336 µM

Provide IC50, recorded with L929 (a mouse fibroblast cell line), of O=c1c(-c2ccc(O)cc2)coc2cc(O)cc(O)c12
28.2 µM

Further cases:
Would you please give the reported IC50 of O=c1c(-c2ccc(O)cc2)coc2cc(O)ccc12 with L929 (a mouse fibroblast cell line)?
220 µM

----------
# Tested on: L929 (a mouse fibroblast cell line)
# assay-overview: Cell proliferation assay (WST-8), L929
# Type: cell-based
# run-parameters: Mus musculus, L929; means ± range (n = 2) or standard deviation (n > 2); DMSO less than 1%
Below is a list of entries, each paired with its recorded pIC50 value.
Conceptually, pIC50 converts a concentration in mol/L into minus its log10.

Before answering, review these 3 worked examples.
Tell me its pIC50 on L929 (a mouse fibroblast cell line): C[C@H]1[C@H](C)CC[C@]2(C(=O)O)CC[C@]3(C)C(=CC[C@@H]4[C@@]5(C)C[C@@H](O)[C@H](O)C(C)(C)[C@@H]5CC[C@]43C)[C@H]12 [Corosolic acid, corosolic acid]
4.75

State pIC50 (L929 (a mouse fibroblast cell line)) of O=c1c(O)c(-c2ccc(O)c(O)c2)oc2cc(O)cc(O)c12 [Quercetin, quercetin] .
3.93

Provide pIC50, tested on L929 (a mouse fibroblast cell line), for C[C@H]1[C@H](C)CC[C@]2(C(=O)O)CC[C@]3(C)C(=CC[C@@H]4[C@@]5(C)CC[C@H](O)C(C)(C)[C@@H]5CC[C@]43C)[C@H]12 [Ursolic acid, ursolic acid] .
4.51

Next:
Name the value of pIC50 reported for O=c1cc(-c2ccc(O)cc2)oc2cc(O)cc(O)c12 [Apigenin, apigenin] when tested on L929 (a mouse fibroblast cell line).
4.33

Given Oc1cc(O)c2c(c1)O[C@H](c1cc(O)c(O)c(O)c1)[C@H](O)C2 [Epigallocatechin, epigallocatechin] , report its pIC50 on L929 (a mouse fibroblast cell line).
4.40

Given O=c1c(-c2ccccc2)coc2ccccc12 [Isoflavone, isoflavone] , report its pIC50 on L929 (a mouse fibroblast cell line).
4.18

Identify measured pIC50 obtained with L929 (a mouse fibroblast cell line) for C/C1=C\CC(C)(C)/C=C/C(=O)/C(C)=C/CC1 [Zerumbone, zerumbone] .
4.52

State, for L929 (a mouse fibroblast cell line), measured pIC50 of the compound listed here: O=c1cc(-c2ccccc2)oc2ccccc12 [Flavone, flavone]
4.46

Report measured pIC50 on L929 (a mouse fibroblast cell line); entry: O=c1cc(-c2ccccc2)oc2cc(O)cc(O)c12 [Chrysine, chrysin]
4.12

Quote pIC50 with test system L929 (a mouse fibroblast cell line) for Oc1ccc(/C=C/c2cc(O)cc(O)c2)cc1 [Resveratrol, resveratrol]
4.07

State pIC50 on L929 (a mouse fibroblast cell line). Entry: COc1cc(/C=C/C(=O)CC(=O)/C=C/c2ccc(O)c(OC)c2)ccc1O [Curcumin, diferuloylmethane]
4.64

Give pIC50 for O=C(/C=C/c1ccccc1)c1ccccc1 [Chalcone, chalcone] tested on L929 (a mouse fibroblast cell line).
4.16
